The values you see were collected from paper PMC7679444.

B1: TMEM59 peptide (residues 268–280), wild type [modified: long spacer (Tds) at the N-terminal end, used for immobilisation; long spacer (Tds) at the N-terminal end, used for immobilisation] [not stated] / GST-HA-ATG16L1(231–607) … (parent)
chain 1: PLPVEQDDDIEVIVDETSDHTEETSPVRAISRAATKRLSQPAGGLLDSITNIFGRRSVSSFPVPQDNVDTHPGSGKEVRVPATALCVFDAHDGEVNAVQFSPGSRLLATGGMDRRVKLWEVFGEKCEFKGSLSGSNAGITSIEFDSAGSYLLAASNDFASRIWTVDDYRLRHTLTGHSGKVLSAKFLLDNARIVSGSHDRTLKLWDLRSKVCIKTVFAGSSCNDIVCTEQCVMSGHFDKKIRFWDIRSESIVREMELLGKITALDLNPERTELLSCSRDDLLKVIDLRTNAIKQTFSAPGFKCGSDWTRVVFSPDGSYVAAGSAEGSLYIWSVLTGKVEKVLSKQHSSSINAVAWSPSGSHVVSVDKGCKAVLWAQY
chain 2: YVPSEKLSIYGDL

- Variants of: B1
- Assay Explanation: peptide microarray
- Assay Context: with GST-HA-ATG16L1(231–607) [human]; ligand 200, 50, 20 nM; parent: 100
Reported Property: percent of parent (% WT)
Supply the numeric figure in % WT, leaving out any unit text.

Here is how some variants turned out for percent of parent.
Input line: Identify measured percent of parent corresponding to chain 2 V2L
Output line: 145

Input line: Identify measured percent of parent corresponding to chain 2 E5M
Output line: 217

Input line: Identify measured percent of parent corresponding to chain 2 V2M
Output line: 31

Input line: Identify measured percent of parent corresponding to chain 2 S4R
Output line: 110

More entries:
Input line: Identify measured percent of parent corresponding to chain 2 S8F
Output line: 175
